Origin of values: PubChem BioAssay (NCI)

System: HOP-92 NSCLC
Assay: NCI tumour cell line growth inhibition, 48 h
Reported TGI values follow for various compounds

compound	TGI
CCC1(O)C(=O)OCc2c1cc1n(c2=O)Cc2cc3c(N)cccc3nc2-1 (centres undefined)	0.931 µM
COc1ccc(-n2c(SCc3cc(OC)c(OC)c(OC)c3)nc3ccc(C)cc3c2=O)cc1	> 100 µM
O=C1C2=C(CC3C(C2)C3(Br)Br)C(=O)C2=C1CC1C(C2)C1(Br)Br (centres undefined)	> 100 µM
O=c1[nH]c(=O)n(C2CC(O)C(CS)O2)cc1F (centres undefined)	> 96.7 µM
C[C@]12CC[C@@H]3c4ccc(O)cc4C[C@@H](CCCCCCCCCS(=O)CCCC(F)(F)C(F)(F)F)[C@H]3[C@@H]1CC[C@@H]2O (some centres undefined)	> 100 µM
Cc1[nH]c(N=Nc2ccccc2)nc1N=Nc1ccccc1	20.3 µM
O=C1CCC(c2ccccc2)C(O)(C(=O)O)C1 (centres undefined)	> 100 µM
CC(C)CSc1nc(Nc2ccccc2)c(C#N)c(-c2ccc(F)cc2)n1	2.63 µM
Nc1ccc(C(=O)Nn2c(-c3ccccc3)nc3ccccc3c2=O)cc1	> 100 µM
CC[C@H](C)[C@H](NC(=O)[C@H]1CCCCN1C)C(=O)N(C)[C@H](CCc1nc(C(=O)N[C@@H](Cc2ccccc2)C[C@H](C)C(=O)OC)cs1)C(C)C	8.33 µM
C1=C2C3=[N+](CCCC3)CC2Cc2ccsc21 (centres undefined)	> 100 µM
CNC1C(=O)C(C)C(O)(C(CC(C)C(O)/C=C/C=C/CNC(=O)C(C)(C)C(O)\C(C)=C/C=C\C=C\Cc2cnc(C)o2)OC)C12C(=O)OC2COC (centres undefined) (tested in a mixture with another compound)	> 51.3 µM
O=[N+]([O-])c1ccccc1N=Nc1c(O)sc2ccccc12	> 100 µM
O=C(CC(=O)N(C(=O)c1ccccc1)c1ccc(Cl)cc1)N/N=C\c1cc(N=Nc2ccccc2Cl)ccc1O	59.6 µM

----------
Reported TGI values follow for various molecules
Test system: MDA-MB-231 breast
Experiment: NCI tumour cell line growth inhibition, 48 h

molecule	TGI
C[C@]12CC[C@@H]3c4ccc(Oc5nc(N6CC6)nc(N6CC6)n5)cc4CC[C@H]3[C@@H]1CCC2=O	25.2 µM
O=P(O)(O)CN1CCN(CP(=O)(O)O)CCN(CP(=O)(O)O)CCN(CP(=O)(O)O)CC1	> 100 µM
CC[N+](C)(CC)Cc1ccccc1[N+](=O)[O-]	> 100 µM
Cc1cc(C2CCCCC2)n(O)c(=O)c1	> 100 µM
CC12CCCC(CC(=O)c3[nH]c4ccccc4c31)C2 (centres undefined)	43.1 µM
Cc1[nH]c(N=Nc2ccccc2)nc1N=Nc1ccccc1	> 45.4 µM
Cc1oc2nc(N(C)C)nc(Cl)c2c1C	> 100 µM
CC(C)(C)C1=CC(=CC=C2C=CN(CCCCCCCCCCCO)C=C2)C=C(C(C)(C)C)C1=O	3.28 µM
COc1ccc2c(c1)OCc1c-2oc2ccccc2c1=O	> 100 µM

----------
Test system: A549 NSCLC
Assay: NCI tumour cell line growth inhibition, 48 h
metric: TGI

molecule	result
CNC=O.[O]=[Ge].[O]=[Ge].[O]=[Ge].[O]=[Ge][OH].[O]=[Ge][OH]	> 100 µM
O=C(O)C1C(C(=O)O)C(C(=O)O)C1C(=O)O (stereo unspecified)	> 100 µM
N#CCCN(c1ccc(/C=C2\N=C(c3ccc(Cl)cc3)OC2=O)cc1)S(=O)(=O)c1ccccc1	> 100 µM
N#Cc1nc(COCCOCc2ccccc2)oc1N	> 100 µM
CC(=O)SCCC1c2[nH]c3ccccc3c2CCN1O (stereo unspecified)	> 100 µM
Cn1cc(C2=C(c3cn(C)c4c(N)cccc34)C(=O)NC2=O)c2ccccc21	> 25 µM
COc1ccc(-c2c(C(C)=O)c(-c3ccccc3)n(C3OC(COC(C)=O)C(OC(C)=O)C(OC(C)=O)C3OC(C)=O)c(=S)c2C#N)cc1 (stereo unspecified)	> 100 µM
O=c1[nH]c(=O)n(C2CC(O)C(CS)O2)cc1F (stereo unspecified)	> 100 µM
CCCCC/C=C/C/C=C/CCCCCCCC1=NC(C)(C)CN1C(C)C	3.2 µM
COc1ccc(C2CC(=O)c3c(O)c(OC)c(OC)c(OC)c3O2)c(O)c1 (stereo unspecified)	28.8 µM
Cc1c2c(nn1-c1ccc(S(=O)(=O)/N=C3\SCC(=O)N3C(=O)c3ccccc3)cc1)-c1ccccc1CC2	> 100 µM
O=C1C2=C(CC3C(C2)C3(Br)Br)C(=O)C2=C1CC1C(C2)C1(Br)Br (stereo unspecified)	> 100 µM
Cc1cc(=O)[nH]c(NNC(C#N)c2ccc(O)cc2)n1 (stereo unspecified)	> 100 µM
Cc1ccc2nc3ccccc3c(C3C4C(=O)N(c5ccc(Br)cc5Cl)C(=O)C4ON3C(C(N)=O)c3ccccc3)c2c1 (stereo unspecified)	> 25 µM
Nc1c(-c2ccc(Br)cc2)[n+]([O-])c2ccccc2[n+]1[O-]	> 100 µM
COc1cc([N+](=O)[O-])ccc1NC(=O)C(F)(F)F	> 100 µM

----------
Tested on: NCI-H23 lung
Test: NCI tumour cell line growth inhibition, 48 h
metric: TGI

smiles_structure	result
CC[C@H](C)[C@H](NC(=O)[C@H]1CCCCN1C)C(=O)N(C)[C@H](CCc1nc(C(=O)N[C@@H](Cc2ccccc2)C[C@H](C)C(=O)OC)cs1)C(C)C	> 25 µM
CC(C)NC(=O)OCc1c(COC(=O)NC(C)C)c(-c2ccc[n+](COC(=O)CC(C)(C)C)c2)n2c1CCC2	> 100 µM
CC(C)(C)OC(=O)N(CCCN(CCn1c2c(c3ccccc3c1=O)C(=O)c1ccccc1-2)C(=O)OC(C)(C)C)CCn1c2c(c3ccccc3c1=O)C(=O)c1ccccc1-2	> 50 µM
Nc1ccc(C(=O)Nn2c(-c3ccccc3)nc3ccccc3c2=O)cc1	> 100 µM

----------
Test system: KM12 colon
Test: NCI tumour cell line growth inhibition, 48 h
Reported TGI values follow for various compounds

compound	TGI
Nc1nc(Cl)cc(NCC2(CO)CC(OCc3ccccc3)C2)n1 (stereo unspecified)	> 100 µM
COc1cc(C2c3cc4c(cc3[C@@H](Nc3ccccc3)C3CO[C@@H](OC)[C@H]23)OCO4)cc(OC)c1O (stereo partly specified)	> 25 µM
CCOC(=O)Cn1sc2ncc([N+](=O)[O-])cc2c1=O	34.3 µM
COc1ccc(-n2c(SCc3cc(OC)c(OC)c(OC)c3)nc3ccc(C)cc3c2=O)cc1	> 100 µM
COC(=O)C1(c2ccc(N(C)C)cc2OC)CCCN(C(=O)Oc2ccccc2[N+](=O)[O-])CCc2c1[nH]c1ccccc21 (stereo unspecified)	> 100 µM
CO/N=C(\C(=O)Nc1cncs1)c1csc(NC(c2ccccc2)(c2ccccc2)c2ccccc2)n1	> 10 µM
CCC(C)(O)c1cn(-c2cccc(S(=O)(=O)O)c2)nn1 (stereo unspecified)	> 100 µM
N#Cc1nc(COCCOCc2ccccc2)oc1N	> 100 µM
O=C(c1ccccc1)c1c2ccccn2c2cccc[n+]12	> 100 µM
CCCCn1c(-c2ccc(C(=O)O/N=C(\N)c3ccc(OC)cc3)cc2)nc(-c2ccccc2)c1-c1ccccc1	> 100 µM
Cn1cc(-c2csc(-c3cccc(F)c3)n2)c2cccnc21	29.5 µM
Cc1c(Cc2ccccc2)n(COCCCO)c(=O)[nH]c1=O	> 100 µM
CC(C)=[CH][Sb]([Br])([CH]=C(C)C)([CH]=C(C)C)[CH]=C(C)C	87.9 µM
CCCCCCCCCCCCCCCCCc1cccc(OCOCCOC)c1CO	> 100 µM
COc1ccc(-c2c(C(C)=O)c(-c3ccccc3)n(C3OC(COC(C)=O)C(OC(C)=O)C(OC(C)=O)C3OC(C)=O)c(=S)c2C#N)cc1 (stereo unspecified)	> 100 µM
CNC=O.[O]=[Ge].[O]=[Ge].[O]=[Ge].[O]=[Ge][OH].[O]=[Ge][OH]	> 100 µM

----------
Test system: HCT-15 colon
Experiment: NCI tumour cell line growth inhibition, 48 h
Reported TGI values follow for various compounds

compound	TGI
COC12C=CC(CC1)C(C)(C)C2=O (stereo unspecified)	> 100 µM
COc1cc(-c2c(C#N)c(N)n3c(nc4ccccc43)c2C#N)cc(Br)c1OC	> 100 µM
CCC1c2[nH]c3ccccc3c2C[C@H]2C(=O)NC(CCC(=O)OC(C)(C)C)C(=O)N12 (stereo partly specified)	> 100 µM
CC1CN=C(Nc2ccc(S(N)(=O)=O)cc2)S1 (stereo unspecified)	> 100 µM
NCCc1nc(-c2nc(C(=O)O)cs2)cs1	> 100 µM
Brc1ccc2c(-c3nc(-c4c[nH]c5ccc(Br)cc45)cs3)c[nH]c2c1	13.1 µM
COc1cc([N+](=O)[O-])ccc1NC(=O)C(F)(F)F	> 100 µM
C=C1CC[C@@]2(OC1)OC1C[C@H]3[C@@H]4CC=C5C[C@@H](O)CC(OC6OCC(OC(=O)[C@@H](O)[C@@H](C)CC)C(OC(C)=O)C6OC6OC(C)C(O)C(O)C6O)[C@]5(C)[C@H]4CC[C@]3(C)C1[C@@H]2C (stereo partly specified)	3.67 µM
CCCN=C(NC(=O)c1ccc(Cl)cc1)SC	> 100 µM
Nc1nc(Cl)cc(NCC2(CO)CC(OCc3ccccc3)C2)n1 (stereo unspecified)	> 100 µM
CN1C(NC(=O)c2ccc(Cl)nc2)=NS(=O)(=O)c2cc(Cl)ccc21	> 100 µM
Clc1cccc(Cl)c1C1SCC2=Nc3ccccc3CN21 (stereo unspecified)	> 100 µM
CCOc1cc(NC(C)=O)ccc1C(=O)NN1C(=O)C(Oc2ccccc2)C1c1ccc(O)c(OC)c1 (stereo unspecified)	> 100 µM
CC1=CC(=O)NP(=O)(Oc2ccc(C)cc2)N1 (stereo unspecified)	> 100 µM
O=C(CCCSc1nc(-c2ccc(Cl)cc2)cc(-c2ccc(Cl)cc2)n1)NO	11.9 µM
CCOC(=O)N/N=C(/N)Cc1ccccc1	> 100 µM
CCc1nc2ccccc2c(=O)n1/N=C(\N=Nc1ccc(Cl)cc1)c1ccccc1Cl	> 100 µM
CNC=O.[O]=[Ge].[O]=[Ge].[O]=[Ge].[O]=[Ge][OH].[O]=[Ge][OH]	> 100 µM
COC(=O)C(=O)C(C(=O)C(=O)Nc1ccc(C)cc1C)c1nc2ccccc2[nH]c1=O (stereo unspecified)	> 100 µM
COC(=O)C1=C(c2ccc3c(c2)OCO3)O[C@H](c2ccc3c(c2)OCO3)[C@H]1COC(C)=O	> 100 µM
Cc1ccccc1Nc1cn(COCc2ccccc2)c(=O)[nH]c1=O	> 100 µM
Cc1[nH]c(N=Nc2ccccc2)nc1N=Nc1ccccc1	22.1 µM
NC(N)=NC(N)=Nc1cc2ccccc2c2ccccc12	30.5 µM
COc1ccccc1N1C(=O)/C(=C\c2cccc(Oc3ccccc3)c2)SC1c1ccccc1 (stereo unspecified)	> 100 µM
CC(=O)SCCC1c2[nH]c3ccccc3c2CCN1O (stereo unspecified)	> 100 µM
CCCCCCCCCCCCCCCCOP(=O)(O)Oc1ccc(/C=C\c2ccc(OP(=O)(O)OCCCCCCCCCCCCCCCC)cc2)cc1	> 100 µM
O=C(CCc1ccc(O)cc1)NCCc1ccc(O)cc1	> 100 µM
CCCN(CCCCC(NC(C)=O)C(=O)NCc1ccccc1)C(=O)N(CCCl)N=O (stereo unspecified)	> 100 µM
Cc1cc(C)cc(Nc2cc(C)nc3nc(C(F)(F)F)nn23)c1	> 100 µM
CC(C)=CC(=O)N1CCN(C(=O)C=C(C)C)CC1	> 100 µM
Cc1cccc(C(C)(C)C)c1NC(=O)CCc1n[nH]c(=S)o1	49 µM
